# assay.method.text: inhibitors of MT1-MMP promoter transcription, cell-based, luciferase reporter, luminescence (AID 618);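 note: actives suppress MT1-MMP promoter-driven transcription so potencies describe inhibitors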
# test.conditions: MT1-MMP promoter luciferase reporter cells
Screen size: about 87,000 compounds; about 540 (0.62%) were called active. The rule behind the calls is not given here. The sample as a whole holds a higher share of actives than the screen did. Results with a measured potency or affinity are listed apart.
Your answer must be one of the following: active, inactive

Consider the following illustrative entries.
[[record]]
compound = "CC1CN/C(=C\\C(=O)c2ccc(Cl)cc2)C(=O)N1 (centres undefined)"
group_label = "inactive"

[[record]]
compound = "Cc1cc(NC(=O)c2ccccc2F)n(-c2nc3ccccc3[nH]2)n1"
group_label = "inactive"


# input So what was the verdict on CCCOc1ccc2nc(NC(=O)OC)[nH]c2c1 in this test?
# output inactive

# input Queued: O=C(c1cc(-c2cccs2)nc2ccccc12)N1CCN(S(=O)(=O)c2cccc(F)c2)CC1
# output inactive

# input Same thing, different compound: COc1cc(OC)cc(C(=O)Nc2nc3ccccc3[nH]2)c1
# output inactive

# input Thanks! And O=C(Nc1nc2ccccc2[nH]1)c1ccccc1F ?
# output active

# input Repeat for the following compound: CN(C)c1nc(SCc2ccccc2)nc(N2CCOCC2)n1
# output inactive

###

# assay.method.text: inhibitors of MT1-MMP promoter transcription, cell-based, luciferase reporter, luminescence (AID 618);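 note: actives suppress MT1-MMP promoter-driven transcription so potencies describe inhibitors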
# test.conditions: MT1-MMP promoter luciferase reporter cells
About 540 (0.62%) of roughly 87,000 compounds were called active. How the calls were made is not given here. The entries come from a sample that favours actives as a whole. Results with a measured potency or affinity are listed apart.
Select the correct class. Options are active, inactive and nothing else.

Examples from the recorded data:
[[record]]
compound = "CN(C)CC(=O)c1c[nH]c2ccccc12"
group_label = "inactive"

[[record]]
compound = "O=C(CCl)N(c1ccc(Cl)cc1)c1c[nH]c2ccccc12"
group_label = "active"

[[record]]
compound = "C=CC(O)(C#CCN(CC)CC)c1ccccc1 (stereo unspecified)"
group_label = "inactive"


# input Can you look up the reported call for O=C(O)CCC(=O)c1c[nH]c2ccccc12 for me?
# output inactive

# input And CCN(CC)C(=O)N1CCn2c(nc3ccccc32)C1 ?
# output inactive

# input Next compound up: Cc1oc2c(c1C(=O)c1ccccc1)C(=O)C(=O)c1ccccc1-2
# output active

###

# assay.method.text: inhibitors of MT1-MMP promoter transcription, cell-based, luciferase reporter, luminescence (AID 618);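 note: actives suppress MT1-MMP promoter-driven transcription so potencies describe inhibitors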
# test.conditions: MT1-MMP promoter luciferase reporter cells
Out of some 87,000 compounds screened, about 540 (0.62%) were called active. How the calls were made is not given here. The list comes from a sample in which actives are over-represented; it also holds close analogues and randomly drawn compounds. Entries with a potency or affinity are not part of this list.
Pick one: TRUE (active), FALSE (inactive)

Worked cases, answers included:
[[record]]
compound = "O=C1c2ccccc2NC(c2ccc(Cl)cc2Cl)N1Cc1ccccc1 (stereo not given)"
group_label = "FALSE"

[[record]]
compound = "CCCCOC(=O)C1C2C=C[C@]3(CN(CCCOC)C(=O)[C@H]13)O2 (stereo not given in full)"
group_label = "FALSE"

[[record]]
compound = "CCOC(=O)CC1=CC(C)(CC(=O)OCC)C(C#N)(C#N)C(N)=C1C#N (stereo not given)"
group_label = "FALSE"

[[record]]
compound = "CC(C)CNC(=O)CSc1ccc(Cl)cc1"
group_label = "FALSE"

[[record]]
compound = "Cc1cc(C)cc(C(=O)N2CC(=O)Nc3ccccc32)c1"
group_label = "TRUE"

[[record]]
compound = "Cc1cccn2c(=O)c3cc(C(=O)NCc4ccco4)c(=N)n(CCOCCO)c3nc12"
group_label = "FALSE"


# input Just curious, what result did Cc1ccc(S(=O)(=O)n2nc(-c3ccc(Cl)cc3)nc2NCc2ccco2)cc1 get here?
# output FALSE

# input Query COc1ccccc1C(=O)Nc1ccc2c(c1)nc(CN1CCN(C(C)=O)CC1)n2C next
# output FALSE
